Cited source: PubChem BioAssay AID1159580

Overview of reported normalized growth across a group of compounds:
protocol: chemical genetic growth profiling, strain panel (AID 1159580);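 note: tested at 20 µM; growth read once vehicle control cultures reached saturation at 30 °C; 1 = growth at the plate median or of vehicle wells; lower values mean less growth of the strain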
conditions: S. cerevisiae deletion strains, growth OD, locus YNL071W, strain lat1, active compounds read low
Among all 5,500 compounds or so, about 2,000 (36%) were called active. Not shown: some 18% with an inconclusive outcome. Some of the results follow.
measured.attribute: normalized growth

compound	value.reported
COC(=O)CC1C(C)(C(=O)c2ccoc2)CC2OCC34C(CC(=O)OC)C5(C)CC36OC3(C)OC1(C(OC(C)=O)C6(OC(C)=O)C5OC(=O)C(C)C)C24O3 (centres undefined)	0.982
CC(=O)O[C@@H]1C2CC[C@@H]3C1(C[C@@H](O)[C@@]1(O)[C@@H](C[C@H](O)C1(C)C)[C@]3(C)O)C[C@@]2(C)O (some centres undefined)	0.981
CC1CC(OC(=O)c2ccccc2O)CC(C)(C)C1 (centres undefined)	0.974
CC(=O)NC1C(O)OC(COS(=O)(=O)O)C(OC2OC(C(=O)O)C(OC3OC(CO)C(OC4OC(C(=O)O)C(O)C(O)C4OS(=O)(=O)O)C(OS(=O)(=O)O)C3NS(=O)(=O)O)C(O)C2OS(=O)(=O)O)C1O (centres undefined)	0.983
O=C1C=C(O)c2ccccc2C1=O	0.945
O=c1c(O)c(-c2ccccc2)oc2ccccc12	0.301
O=C(N[C@@H](CO)[C@H](O)c1ccc([N+](=O)[O-])cc1)C(Cl)Cl	1.02
O=c1c(O)c(-c2ccccc2)oc2ccc3occc3c12	0.363
CC(C)N1C(=O)c2ccccc2NS1(=O)=O	0.98
NNCc1ccccc1	1.01
O=C1c2cccc(O)c2C(=O)c2c(O)cccc21	0.831
O=c1c(O)c(-c2ccc(O)cc2)oc2ccccc12	0.471
C=CC[C@@H]1/C=C(\C)C[C@H](C)C[C@H](OC)[C@H]2O[C@@](O)(C(=O)C(=O)N3CCCC[C@H]3C(=O)O[C@H](/C(C)=C/[C@@H]3CC[C@@H](O)[C@H](OC)C3)[C@H](C)[C@@H](O)CC1=O)[C@H](C)C[C@@H]2OC	0.746
COCC1=C(C(=O)OC(C)OC(=O)OC(C)C)N2C(=O)[C@@H](NC(=O)/C(=N\OC)c3csc(N)n3)[C@H]2SC1 (some centres undefined)	0.986
OC[C@H]1O[C@@H](Oc2ccc(O)cc2)[C@H](O)[C@@H](O)[C@@H]1O	1.01
CC(=O)c1c(O)cc(O)cc1O	0.984
C[N+]12CCC(CC1)C(OC(=O)C(O)(c1ccccc1)c1ccccc1)C2 (centres undefined)	1
COc1ccc(NS(=O)(=O)c2ccc(N)cc2)nn1	1
CCCCCCCCCCCCCCCC(=O)OC[C@H](NC(=O)C(Cl)Cl)[C@H](O)c1ccc([N+](=O)[O-])cc1	0.986
CCCN(CCC)c1c([N+](=O)[O-])cc(C(F)(F)F)cc1[N+](=O)[O-]	1
Cc1cc(O)c2c(c1)C(=O)c1cccc(O)c1C2=O	0.996
COc1cc([C@@H]2c3cc4c(cc3[C@H](O)[C@H]3COC(=O)[C@H]23)OCO4)cc(OC)c1OC	1.01
CNC(C)(C)Cc1ccccc1	1.01
CN1CCC[C@H]1c1cccnc1	1.04
CC12CCC(O)CC1CCc1ccccc12 (centres undefined)	0.959
COc1ccc(CC(=O)c2ccc(O)cc2O)cc1	0.851
COc1cc(O)c2c(c1)C(=O)c1cc(C)cc(O)c1C2=O	0.998
COc1cc(O)ccc1C(C)=O	1.02
O=C1c2ccccc2C(=O)c2ccccc21	0.955
O=C(O)[C@H]1/C(=C/CO)O[C@@H]2CC(=O)N21	0.996
COC(=O)C[C@H]1C(C)(C)[C@@H](OC(C)=O)[C@@H]2CC3=C4CC(=O)O[C@@H](c5ccoc5)[C@]4(C)CCC3[C@@]1(C)C2=O (some centres undefined)	1
COC1=CC23CCCN2CCc2cc4c(cc2C3C1O)OCO4 (centres undefined)	1.02
O=C(O)CC[N+](=O)[O-]	1.01
CCC[C@@H]1C[C@@H](C(=O)N[C@H]([C@H]2O[C@H](SC)[C@H](O)[C@@H](O)[C@H]2O)[C@H](C)O)N(C)C1	0.986
